Task for the reader: assign each of the following compounds its reported IC50.
assay-system: PHD2 (Homo sapiens)
Construct: FLAG-tagged full length PHD2expressed in and purified from baculovirus-infected Sf9 cells; FLAG; made in house; host or cells: baculovirus-infected Sf9 cells
Sequence (Q9GZT9 whole entry): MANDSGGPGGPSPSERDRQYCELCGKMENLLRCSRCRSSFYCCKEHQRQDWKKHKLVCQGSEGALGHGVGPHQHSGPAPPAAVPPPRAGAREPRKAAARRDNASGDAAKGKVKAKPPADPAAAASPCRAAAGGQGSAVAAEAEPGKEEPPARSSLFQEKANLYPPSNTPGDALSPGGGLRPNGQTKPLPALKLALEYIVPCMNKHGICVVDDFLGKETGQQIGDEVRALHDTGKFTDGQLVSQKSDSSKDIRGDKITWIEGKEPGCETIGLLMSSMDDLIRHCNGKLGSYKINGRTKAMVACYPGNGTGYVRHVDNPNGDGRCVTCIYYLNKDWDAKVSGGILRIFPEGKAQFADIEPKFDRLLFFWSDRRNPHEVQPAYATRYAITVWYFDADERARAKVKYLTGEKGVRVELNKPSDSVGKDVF
experiment: Assay for HIF-PHD2 Catalytic Activity (time resolved fluorescence, VHL complex detection)
Type: biochemical
test-settings: FLAG-tagged full length PHD2; 0.2 μM 2-oxoglutarate, 0.5 μM HIF-1α peptide; read-out: PHD2 Binding Activity IC50

Request: # query: IC50 of entry O=C(O)CNC(=O)c1c(O)c2c(n(Cc3ccc(-c4ccccc4C(F)(F)F)cc3)c1=O)COC2
Response: < 10 nM

Request: Next compound: O=C(O)CNC(=O)c1c(O)c2c(n(Cc3ccn(-c4ccc(F)cc4)n3)c1=O)COC2
Response: < 10 nM

Request: Repeat for the following compound: O=C(O)CNC(=O)c1c(O)c2c(n(Cc3nc4ccccc4s3)c1=O)COC2
Response: < 10 nM

Request: Try this compound next: CCN(CC)C(=O)c1ccccc1-c1ccc(Cn2c3c(c(O)c(C(=O)NCC(=O)O)c2=O)COC3)c(F)c1
Response: < 10 nM

Request: Next entry: O=C(O)CNC(=O)c1c(O)c2c(n(Cc3ccc(-c4ccccc4Cl)nc3)c1=O)COC2
Response: < 10 nM

Request: Thanks! And Cn1cc(-c2ccc(Cn3c4c(c(O)c(C(=O)NCC(=O)O)c3=O)COC4)cn2)cn1 ?
Response: < 10 nM

Request: Then this compound: O=C(O)CNC(=O)c1c(O)c2c(n(Cc3cnc(-c4ccc(F)c(F)c4)cn3)c1=O)COC2
Response: < 10 nM

Request: Next compound: O=C(O)CNC(=O)c1c(O)c2c(n(Cc3ccc(OC(F)F)cc3)c1=O)COC2
Response: < 10 nM

Request: Try this compound next: O=C(O)CNC(=O)c1c(O)c2c(n(Cc3cnc(-c4ccccc4OC(F)(F)F)cn3)c1=O)COC2
Response: < 10 nM

Request: Do the same for Cc1ccccc1-n1ccc(Cn2c3c(c(O)c(C(=O)NCC(=O)O)c2=O)COC3)n1 please
Response: < 10 nM

Request: Likewise for O=C(O)CNC(=O)c1c(O)c2c(n(Cc3cnc(Cl)cn3)c1=O)COC2 ?
Response: < 10 nM

Request: Now the compound O=C(O)CNC(=O)c1c(O)c2c(n(Cc3ccc(-c4ccccc4OCC(F)(F)F)nc3)c1=O)COC2
Response: < 10 nM

Request: Another: O=C(O)CNC(=O)c1c(O)c2c(n(Cc3ccc(-c4ccccc4C(F)(F)F)nc3)c1=O)COC2
Response: < 10 nM

Request: Entry COC(=O)c1ccccc1-c1ccc(Cn2c3c(c(O)c(C(=O)NCC(=O)O)c2=O)COC3)cc1 please
Response: < 10 nM

Request: Another: O=C(O)CNC(=O)c1c(O)c2c(n(Cc3ccc(-c4ccccc4F)nc3)c1=O)COC2
Response: < 10 nM

Request: Also CC1OCc2c1c(O)c(C(=O)NCC(=O)O)c(=O)n2Cc1ccc(C(F)(F)F)cc1 (stereo not shown) ?
Response: < 10 nM

All values here come from patent US8471024B2.
